B1: NF2 (merlin) isoform 7, human, full length (507 aa, lacks exons 2-3 = isoform-1 residues 39-121; exon-16 C-terminus), P35240-4 (parent)
chain: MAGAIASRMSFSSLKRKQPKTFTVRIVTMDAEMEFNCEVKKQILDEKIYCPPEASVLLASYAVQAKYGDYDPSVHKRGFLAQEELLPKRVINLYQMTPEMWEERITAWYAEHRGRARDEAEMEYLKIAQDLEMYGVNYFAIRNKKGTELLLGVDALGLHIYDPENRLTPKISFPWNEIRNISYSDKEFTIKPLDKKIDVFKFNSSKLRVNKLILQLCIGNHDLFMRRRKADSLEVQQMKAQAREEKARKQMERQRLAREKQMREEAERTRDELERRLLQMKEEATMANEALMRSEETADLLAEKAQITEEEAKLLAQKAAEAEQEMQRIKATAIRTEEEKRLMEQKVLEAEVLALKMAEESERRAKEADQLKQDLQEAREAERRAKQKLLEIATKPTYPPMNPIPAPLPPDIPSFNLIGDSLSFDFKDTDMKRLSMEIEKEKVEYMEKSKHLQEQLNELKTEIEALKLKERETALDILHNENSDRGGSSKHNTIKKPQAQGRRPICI

# Variants of: B1
# procedure details: reverse yeast two-hybrid deep mutational scan (rY2H-seq): NF2 isoform 7 mutant library as bait mated with wild-type prey strains; selection on medium lacking adenine for non-interacting pairs; NextSeq paired-end sequencing; enrichment vs …
# cond: with NF2 C-terminal domain (wild type; homomeric NF2-NF2 interaction), P35240; yeast diploids after mating (RBait_S3 x RPrey_S3), 30 °C, selection for reporter genes on NB agar; human ABL2 co-expressed as the kinase-dead K35M mutant …; HIGHER = WEAKER BINDING (the opposite of display enrichments): higher = stronger loss of interaction: reverse Y2H selects yeast in which bait and prey do NOT interact (growth without adenine), so a …; hits-only table; partner unresolved; scale: rY2H score; numbering: uniprot, sequence starts at 1
assay metric: enrichment
Give your answer as a number; write no unit.

Observe how each entry below is paired with its result.
1) S423L    2.58
2) L390C    4.75

enrichment recorded for this variant, A378L , is 2.15

enrichment recorded for this variant, P399E , is 1.43

enrichment recorded for this variant, E132L , is 1.84
